Where these numbers come from: patent US20250376535A1

# target: T1, EGFR Fc (human, UniProt P00533 25-645)
# T1 construct: also called EGFR-hFc; recombinant human EGFR-Fc
# run.description: ELISA, EGFR Fc coated, VHH at 50 nM
measured.property: OD450

pgEG-SX20 (VHH, not shown: small tags and cut ends) VHH: QVQLVESGGGLVQAGGSLRLSCAGARSAFSIKPMTWYRQAPGKERELVAYFNSGGSTNYADSVKGRFTISRDNAKNTMYLQMNNLKPEDTAVYYCNAIPPLGSWGQGTQVTVSS	2.67
pgEG5 (VHH, not shown: small tags and cut ends) VHH: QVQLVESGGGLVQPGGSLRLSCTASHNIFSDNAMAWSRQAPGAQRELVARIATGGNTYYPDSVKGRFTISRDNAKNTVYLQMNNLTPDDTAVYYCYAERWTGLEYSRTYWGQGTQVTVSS	2.33
pgEG-SX57 (VHH, not shown: small tags and cut ends) VHH: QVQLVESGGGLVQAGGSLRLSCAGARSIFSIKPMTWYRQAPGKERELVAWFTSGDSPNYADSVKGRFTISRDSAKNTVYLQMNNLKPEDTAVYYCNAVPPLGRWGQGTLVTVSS	2.46
pgEG-SX55 (VHH, not shown: small tags and cut ends) VHH: QVQLVESGGGLVQPGGSLRLSCAGTGLIFTTYVMGWYRQAPGKQRELVAIVTNGGGTHYADFVKGRFTISRDNAKNTVSLQMNLLKPEDTAVYYCNARHLVRPGTNDYWGQGTLVTVSS	2.2
pgEG-SX56 (VHH, not shown: small tags and cut ends) VHH: QVQLVESGGGFVQAGGSLRLSCAASGRFLSIADMDWYRRVPGKQRELVASITRAGDTALEDSVKGRFTISRDNAKNTVHLQMNSVKPEDTAVYYCRADVTRSGTPYFEVWGQGTLVTVSS	1.47

I: pgEG-SX6 (VHH, not shown: small tags and cut ends) VHH: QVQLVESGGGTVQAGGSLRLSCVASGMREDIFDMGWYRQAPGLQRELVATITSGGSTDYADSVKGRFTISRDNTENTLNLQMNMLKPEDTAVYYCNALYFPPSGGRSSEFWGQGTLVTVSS
II: pgEG-SX52 (VHH, not shown: small tags and cut ends) VHH: QVQLVESGGGLVKAGKSLRLSCAASVSSFDTYTMGWYRQAPGKQREQVAIITPGAGTHYADSVKGRFTISRDNAKNTVYLQMSSLKLEDTAVYYCKARHRITGYDYWGQGTQVTVSS
III: pgEG-SX39 (VHH, not shown: small tags and cut ends) VHH: QVQVAESGGGLVQAGESLRLSCTASGSISTINAVRWYRQTPGKQREFVAYISTDGGTDYADPVKGRFTISRDNAKNTWFLQMNSLKPEDTGVYMCNVVVTPYAYWGQGTQVTVSS
### Prompt Reorder: OD450, max to min. Sort and list the labels as requested.
### Response II, I, III
(II: 2.33, I: 1.15, III: 0.147)
